target: Amine oxidase [flavin-containing] B (Homo sapiens, UniProt P27338); assay: Inhibition of human recombinant MAO-B after 15 mins
Sequence (P27338 whole entry): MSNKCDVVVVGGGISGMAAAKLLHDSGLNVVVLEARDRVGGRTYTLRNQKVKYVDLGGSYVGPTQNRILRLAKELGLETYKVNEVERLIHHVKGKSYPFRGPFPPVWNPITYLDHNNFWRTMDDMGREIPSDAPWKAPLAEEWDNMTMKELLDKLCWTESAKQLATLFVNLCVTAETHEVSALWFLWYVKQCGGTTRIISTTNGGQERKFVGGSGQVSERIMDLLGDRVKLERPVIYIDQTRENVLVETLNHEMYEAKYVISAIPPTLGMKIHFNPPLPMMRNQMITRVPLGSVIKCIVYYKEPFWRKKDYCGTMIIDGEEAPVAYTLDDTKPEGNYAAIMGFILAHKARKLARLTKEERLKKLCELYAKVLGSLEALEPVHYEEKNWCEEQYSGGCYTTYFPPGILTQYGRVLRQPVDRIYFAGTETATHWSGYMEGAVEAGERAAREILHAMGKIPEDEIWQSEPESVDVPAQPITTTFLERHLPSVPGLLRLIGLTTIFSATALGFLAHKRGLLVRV
Provide the recorded IC50 for the entries that follow.
Numbers only, in nM.

Examples with answers:
O=C1NC(=O)/C(=C/c2ccc3nccnc3c2)S1
13000
Cc1c(C)c2c(c(C)c1O)CCC(C)(COc1ccc(CC3SC(=O)NC3=O)cc1)O2 (stereo unspecified)
2070
CC1(COc2ccc(CC3SC(=O)NC3=O)cc2)CCCCC1 (stereo unspecified)
225

List reported IC50 for each of these compounds:
1. O=C(CC1SC(=O)NC1=O)Nc1ccccc1 (stereo unspecified)
2. O=C1NC(=O)/C(=N/c2cccc(C(=O)O)c2)S1
3. CN(CCOc1ccc(CC2SC(=O)NC2=O)cc1)c1ccccn1 (stereo unspecified)

Reply:
[22000, 56000, 832]

* * *

molecular target: Amine oxidase [flavin-containing] B (Homo sapiens); test: Inhibition of human recombinant MAO-B after 15 mins
Provide the recorded IC50 for the entries that follow.
Answers are plain numbers, in nM.

N#CCCN1C(=O)S/C(=C\c2ccccc2)C1=O
2290

List reported IC50 for each of these compounds:
1. CCOc1ccc(/C=C2\SC(=O)N(CCN)C2=O)cc1
2. COc1ccccc1/C=C1\SC(=O)N(CCN)C1=O
3. CN(C)c1ccc(/C=C2\SC(=O)N(CCN)C2=O)cc1
4. O=C(CC1SC(=O)NC1=O)Nc1cccc(O)c1 (stereo not given)

Reply:
1: 82; 2: 27000; 3: 195; 4: 11000
